Tested on: daratumumab
Test Method Notes: Absorbance based DAR analysis of FITC conjugation to antibody
Assay type: biochemical
Measurement Setup: 2.5 M eq reagent, phosphate buffer saline pH 7.4, 4 h, 25 C; Drug = FITC
Non-standard residues stand in square brackets, D forms with d. Residues, ends and D or L forms follow the SMILES beside them. *: point of attachment. X2 = O=C(CCOCCOCCOCCOCCOCCOCCNC(=S)Nc1ccc2c(c1)C(=O)OC21c2ccc(O)cc2Oc2cc(O)ccc21)Oc1c(F)cc(CN*)cc1F; PEG4 = NCCOCCOCCOCCOCCC(=O)O
Kindly supply the reported DAR values for the records listed here.

// CCNC(=O)c1ccc(OC(=O)CCOCCOCCOCCOCCOCCOCCNC(=S)Nc2ccc3c(c2)C(=O)OC32c3ccc(O)cc3Oc3cc(O)ccc32)cc1 [Compound I-19] : DAR value = 0.20

// CC(=O)NCC(=O)N[C@@H](CO)C(=O)N[C@@H](Cc1ccc(O)cc1)C(=O)N[C@@H](Cc1c[nH]c2ccccc12)C(=O)N[C@@H](Cc1ccc(O)cc1)C(=O)N[C@@H](CC(=O)O)C(=O)N[C@H](C(=O)N[C@@H](Cc1c[nH]c2ccccc12)C(=O)N[C@@H](Cc1ccccc1)C(=O)NCCOCCOCCOCCOCCC(=O)NCc1cc(F)c(OC(=O)CCOCCOCCOCCOCCOCCOCCNC(=S)Nc2ccc3c(c2)C(=O)OC32c3ccc(O)cc3Oc3cc(O)ccc32)c(F)c1)C(C)C [Compound I-45] (Ac-GSYWYDVWF[PEG4]-X2) : DAR value = 0.64

// CC(=O)N[C@@H](CC(=O)O)C(=O)N[C@H]1CSSC[C@@H](C(=O)N[C@H](C(=O)O)[C@@H](C)O)NC(=O)[C@H](Cc2c[nH]c3ccccc23)NC(=O)[C@H](C(C)C)NC(=O)[C@H](CC(C)C)NC(=O)[C@H](CCC(=O)O)NC(=O)CNC(=O)[C@H](CC(C)C)NC(=O)[C@H](CC(=O)NCc2ccc(OC(=O)CCOCCOCCOCCOCCOCCOCCNC(=S)Nc3ccc4c(c3)C(=O)OC43c4ccc(O)cc4Oc4cc(O)ccc43)cc2)NC(=O)[C@H](Cc2c[nH]c3ccccc23)NC(=O)[C@H](C)NC1=O [Compound I-43] : DAR value = 0.26

// CC(=O)NCc1ccc(OC(=O)CCOCCOCCOCCOCCOCCOCCNC(=S)Nc2ccc3c(c2)C(=O)OC32c3ccc(O)cc3Oc3cc(O)ccc32)cc1 [Compound I-11] : DAR value = 0.05

----------
System: daratumumab
Test Method Notes: Absorbance based DAR analysis of FITC conjugation to antibody
Type: biochemical
Measurement Setup: 2.5 M eq reagent, phosphate buffer saline pH 7.4, 4 h, 25 C; Drug = FITC
Protocol: In some embodiments, reaction partners, e.g., compounds of formula R-I or salts thereof ere dissolved in DMSO to 5 mM stock solution. In some embodiments, reactions are set up with 300 micrograms of antibody. […] In some embodiments, a useful technology is absorbance based DAR analysis. […] Molarity is calculated from absorbance of FITC (A485) and antibody (A280) of conjugated product, and extinction coefficients of FITC and antibody using Beer-Lambert law. […]
Kindly supply the reported DAR values for the records listed here.
Answer with the value's number alone.

Measured DAR for this entry CC(=O)NCc1cc(F)c(OC(=O)CCOCCOCCOCCOCCOCCOCCNC(=S)Nc2ccc3c(c2)C(=O)OC32c3ccc(O)cc3Oc3cc(O)ccc32)c(F)c1 [Compound I-9] on daratumumab: 0.06

Measured DAR for this entry CCNC(=O)c1ccc(OC(=O)CCOCCOCCOCCOCCOCCOCCNC(=S)Nc2ccc3c(c2)C(=O)OC32c3ccc(O)cc3Oc3cc(O)ccc32)c(F)c1 [Compound I-18] on daratumumab: 0.05

Measured DAR for this entry CC(=O)N[C@@H](CC(=O)O)C(=O)N[C@H]1CSSC[C@@H](C(=O)N[C@H](C(=O)O)[C@@H](C)O)NC(=O)[C@H](Cc2c[nH]c3ccccc23)NC(=O)[C@H](C(C)C)NC(=O)[C@H](CC(C)C)NC(=O)[C@H](CCC(=O)O)NC(=O)CNC(=O)[C@H](CC(C)C)NC(=O)[C@H](CCNC(=O)c2ccc(OC(=O)CCOCCOCCOCCOCCOCCOCCNC(=S)Nc3ccc4c(c3)C(=O)OC43c4ccc(O)cc4Oc4cc(O)ccc43)cc2)NC(=O)[C@H](Cc2c[nH]c3ccccc23)NC(=O)[C@H](C)NC1=O [Compound I-42] on daratumumab: 0.13

----------
Test system: daratumumab
Test Method Notes: Absorbance based DAR analysis of FITC conjugation to antibody
Format: biochemical
Measurement Setup: 2.5 M eq reagent, phosphate buffer saline pH 7.4, 4 h, 25 C; Drug = FITC
Kindly supply the reported DAR values for the records listed here.
Answer with the value's number alone.

Measured DAR for this entry CC(=O)N[C@@H](CC(=O)O)C(=O)N[C@H]1CSSC[C@@H](C(=O)N[C@H](C(=O)O)[C@@H](C)O)NC(=O)[C@H](Cc2c[nH]c3ccccc23)NC(=O)[C@H](C(C)C)NC(=O)[C@H](CC(C)C)NC(=O)[C@H](CCC(=O)O)NC(=O)CNC(=O)[C@H](CC(C)C)NC(=O)[C@H](CC(=O)NCc2ccc(OC(=O)CCOCCOCCOCCOCCOCCOCCOCCOCCNC(=S)Nc3ccc4c(c3)C(=O)OC43c4ccc(O)cc4Oc4cc(O)ccc43)c(F)c2)NC(=O)[C@H](Cc2c[nH]c3ccccc23)NC(=O)[C@H](C)NC1=O on daratumumab: 0.59

Measured DAR for this entry CC(=O)NCc1ccc(OC(=O)CCOCCOCCOCCOCCOCCOCCNC(=S)Nc2ccc3c(c2)C(=O)OC32c3ccc(O)cc3Oc3cc(O)ccc32)c(F)c1 on daratumumab: 0.08
